// values below are IC50; system is cGMP-specific 3',5'-cyclic phosphodiesterase (Rattus norvegicus, UniProt O54735)

Smiles String | Recorded Metric | Result
COc1cc(O)c(CC=C(C)C)c2oc(-c3ccc(O)cc3)c(O)c(=O)c12 | IC50 | 0.013 µM

Then there is this compound:
Query: Any idea what IC50 came out for "C=C(C)[C@H](CCC(C)(C)O)Cc1c(O)cc(OC)c2c1O[C@H](c1ccc(O)cc1O)CC2=O" on cGMP-specific 3',5'-cyclic phosphodiesterase (Rattus norvegicus, UniProt O54735)?
Response: 6.1 µM

----------
- Test Details: Inhibition of Phosphodiesterase 3 from rat diaphragm
Please use YES for IC50 under 1000 nM and NO for everything else, ties included.

Known results for compounds:
Compound | Qualitative Label
C=C(C)[C@H](CCC(C)(C)O)Cc1c(O)cc(OC)c2c1O[C@H](c1ccc(O)cc1O)CC2=O [KURARINOL] | NO
C=C(C)[C@H](CC=C(C)C)Cc1c(O)cc(OC)c(C(=O)/C=C/c2ccc(O)cc2O)c1O [KURAIDIN] | NO
C=C(C)C(CCC(C)(C)O)Cc1c(O)cc(OC)c2c1O[C@H](c1ccc(O)cc1O)[C@H](O)C2=O (stereo partly specified) | NO

Query: Is IC50 of Cc1[nH]c(=O)c(C#N)cc1-c1ccncc1 [MILRINONE] strictly below 1000 nM?
Response: YES

Query: Lab log: compare recorded IC50 with 1000 nM; is it strictly lower for COc1cc(O)c(CC=C(C)C)c2oc(-c3ccc(O)cc3)c(O)c(=O)c12 [SOPHOFLAVESCENOL] ?
Response: YES

Query: Could you please tell me whether IC50 recorded for C=C(C)C(CCC(C)(C)O)Cc1c(O)cc(OC)c2c1O[C@H](c1ccc(O)cc1O)[C@@H](O)C2=O (stereo partly specified) is less than 1000 nM?
Response: NO
